- Assay comment: Pharmacokinetic profiles of PEGylated peptides in Fisher 344 rats
- Assay type: in vivo, rat
- Conditions used: 100 μg agonist/kg, plasma RIA, mean N = 3
Where no end group is shown, it is not given here.

{"Substance": "C6-HSDAVFTEQY(OMe)TOrnLRAibQLAAbuAibOrnyLQAibIOrnOrnGGPSSGAPPPC(PEG30K)C(PEG30K)-NH2 (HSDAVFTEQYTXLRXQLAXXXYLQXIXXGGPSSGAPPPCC; not fully specified (some residues, N-terminus, C-terminus); printed as C6-HSDAVFTEQY(OMe)TOrnLRAibQLAAbuAibOrnyLQAibIOrnOrnGGPSSGAPPPC(PEG30K)C(PEG30K)-NH2; cysteine pairing not given here) [Agonist P570]", "Readout unit": "ng·h/mL", "AUC0-last": 3891}
{"Substance": "C6-HSDAVFTEQY(OMe)TOrnLRAibQVAAbuAibOrnYLQAibIOrnOrnGGPSSGAPPPC(PEG40K)-NH2 (HSDAVFTEQYTXLRXQVAXXXYLQXIXXGGPSSGAPPPC; C6 acyl, PEG40K on Cys, C-terminal amide; Synthetic sequence PEGylated VPAC2 receptor agonist) [Agonist P511]", "Readout unit": "ng·h/mL", "AUC0-last": 3067}
{"Substance": "C6-HSDAVFTEQY(OMe)TOrnLRAibQLAAbuAibOrnYAibQSIOrnOrnGGPSSGAPPPC(PEG20K)C(PEG20K)-NH2 (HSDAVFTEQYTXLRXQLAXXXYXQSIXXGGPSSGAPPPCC; C6 acyl, two PEG20K, C-terminal amide; Synthetic sequence PEGylated VPAC2 receptor agonist) [Agonist P521]", "Readout unit": "ng·h/mL", "AUC0-last": 7633}
{"Substance": "C6-HSDAVFTEQY(OMe)TOrnLRAibQVAAAibOrnYLQSIOrnOrnC(PEG20K)GGPSSGAPPPC(PEG20K)NH2 (HSDAVFTEQYTXLRXQVAAXXYLQSIXXCGGPSSGAPPPC; C6 acyl, two PEG20K, C-terminal amide; Synthetic sequence PEGylated VPAC2 receptor agonist) [Agonist P562]", "Readout unit": "ng·h/mL", "AUC0-last": 5456}
{"Substance": "C6-HSDAVFTEQY(OMe)TOrnLRAibQC(PEG40K)AAbuAibOrnYLQAibIOrnOrnGGPSSGAPPPS-NH2 (HSDAVFTEQYTXLRXQCAXXXYLQXIXXGGPSSGAPPPS; C6 acyl, PEG40K on Cys, C-terminal amide; Synthetic sequence PEGylated VPAC2 receptor agonist) [Agonist P545]", "Readout unit": "ng·h/mL", "AUC0-last": 12737}
{"Substance": "C6-HSDAVFTEQY(OMe)TOrnLRAibQLAAbuAibOrnYLQSIOrnC(PEG20K)OrnGGPSSGAPPPC(PEG20K)-NH2 (HSDAVFTEQYTXLRXQLAXXXYLQSIXCXGGPSSGAPPPC; C6 acyl, two PEG20K, C-terminal amide; Synthetic sequence PEGylated VPAC2 receptor agonist) [Agonist P555]", "Readout unit": "ng·h/mL", "AUC0-last": 4918}

###

- Assay comment: Rat serum stability study (DiscoveRx cAMP read-out on CHO-VPAC2 cells)
- Conditions used: 24 h in rat serum at 37° C.; EC50, 4° C./EC50, 37° C.; values >100% may represent release of intact peptide from the PEG conjugate
- Description: In order to determine the stability of VPAC2 receptor peptide agonists in rat serum, CHO-VPAC2 cells clone #6 (96 well plates/50,000 cells/well and 1 day culture), PBS 1× (Gibco), the peptides for the analysis in a 100 μM stock solution, rat serum from a sacrificed normal Wistar rat, aprotinin, and a DiscoveRx assay kit are obtained. The rat serum is stored at 4° C. until use and is used within two weeks. The aliquot is stored with aprotinin at 4° C. […]
The label is Satisfied for 24 h stab (%) below 200% and Not satisfied for 24 h stab (%) equal to or exceeding 200%.

{"Substance": "C6-HSDAVFTEQY(OMe)TOrnLRAibQVAAAibOrnYLQSC(PEG20K)OrnOrnGGPSSGAPPPC(PEG20K)-NH2 (HSDAVFTEQYTXLRXQVAAXXYLQSCXXGGPSSGAPPPC; C6 acyl, two PEG20K, C-terminal amide; Synthetic sequence PEGylated VPAC2 receptor agonist) [Agonist P503]", "Label class": "Satisfied"}
{"Substance": "C6-HSDAVFTEQY(OMe)TOrnLRAibQVAAAibK(CO(CH2)2SPEG20K)YLQSIOrnOrnGGPSSGAPPPS-NH2 (HSDAVFTEQYTXLRXQVAAXXYLQSIXXGGPSSGAPPPS; C6 acyl; PEG20K; non-natural residues; amide; Synthetic sequence PEGylated VPAC2 receptor peptide agonist) [Agonist P473]", "Label class": "Satisfied"}
{"Substance": "C6-HSDAVFTEQY(OMe)TRAibRAibQLAAAibOrnY(OMe)LQSIKAibOrnGGPSSGAPPPC(PEG40K)-NH2 (HSDAVFTEQYTRXRXQLAAXXYLQSIKXXGGPSSGAPPPC; C6 acyl; PEG40K; non-natural residues; amide; Synthetic sequence PEGylated VPAC2 receptor peptide agonist) [Agonist P417]", "Label class": "Not satisfied"}
{"Substance": "C6-HSDAVFTEQY(OMe)TOrnLRAibQLAAbuAibOrnY(OMe)LQAibIOrnOrnGGPSSGAPPPC(PEG20K)C(PEG20K)-NH2 (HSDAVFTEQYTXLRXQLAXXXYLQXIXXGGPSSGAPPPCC; C6 acyl, non-natural residues, two PEG20K, C-terminal amide; Synthetic sequence PEGylated VPAC2 receptor agonist) [Agonist P574]", "Label class": "Not satisfied"}
{"Substance": "C6-HSDAVFTEQY(OMe)TOrnLRAibQLAAbuAibOrnYLQSC(PEG40K)OrnOrnGGPSSGAPPPS-NH2 (HSDAVFTEQYTXLRXQLAXXXYLQSCXXGGPSSGAPPPS; C6 acyl, PEG40K on Cys, C-terminal amide; Synthetic sequence PEGylated VPAC2 receptor agonist) [Agonist P543]", "Label class": "Satisfied"}

###

- System name: Human VPAC1 Receptor (Homo sapiens)
- Construct: expressed in transfected cells
- Sequence (P32241 31-457): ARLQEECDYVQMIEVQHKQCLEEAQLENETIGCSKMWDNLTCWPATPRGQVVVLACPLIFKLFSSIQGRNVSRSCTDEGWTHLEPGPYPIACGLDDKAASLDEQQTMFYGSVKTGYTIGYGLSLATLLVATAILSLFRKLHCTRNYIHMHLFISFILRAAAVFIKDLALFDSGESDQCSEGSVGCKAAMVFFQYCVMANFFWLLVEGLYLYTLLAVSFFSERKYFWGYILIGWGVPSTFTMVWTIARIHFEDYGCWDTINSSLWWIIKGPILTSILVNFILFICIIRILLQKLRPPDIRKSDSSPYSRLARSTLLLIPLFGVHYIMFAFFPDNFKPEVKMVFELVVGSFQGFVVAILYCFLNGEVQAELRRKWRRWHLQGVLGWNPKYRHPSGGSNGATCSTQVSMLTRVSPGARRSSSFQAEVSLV
- Assay comment: Filter binding assay, 125I-labeled VIP, membranes of cells transiently transfected with human VPAC1
- Conditions used: 125I-labeled VIP tracer
Examples of substances with documented IC50 follow.

{"Substance": "C6-HSDAVFTEQY(OMe)TOrnLRAibQLAAbuAibOrnYLQAibIOrnC(PEG20K)OrnGGPSSGAPPPC(PEG20K)-NH2 (HSDAVFTEQYTXLRXQLAXXXYLQXIXCXGGPSSGAPPPC; C6 acyl, two PEG20K, C-terminal amide; Synthetic sequence PEGylated VPAC2 receptor agonist) [Agonist P553]", "IC50": "> 25000 nM"}
{"Substance": "C6-HSDAVFTEQY(OMe)TOrnLRAibQC(PEG40K)AAbuAibOrnYLQAibIOrnOrnGGPSSGAPPPS-NH2 (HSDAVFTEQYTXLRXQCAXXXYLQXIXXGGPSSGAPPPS; C6 acyl, PEG40K on Cys, C-terminal amide; Synthetic sequence PEGylated VPAC2 receptor agonist) [Agonist P545]", "IC50": "> 25000 nM"}
{"Substance": "C6-HSDAVFTEQY(OMe)TOrnLRAibQVAAAibOrnYLQSIOrnOrnC(PEG20K)GGPSSGAPPPC(PEG20K)NH2 (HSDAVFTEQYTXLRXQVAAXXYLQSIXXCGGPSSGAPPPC; C6 acyl, two PEG20K, C-terminal amide; Synthetic sequence PEGylated VPAC2 receptor agonist) [Agonist P562]", "IC50": "> 25000 nM"}

###

- Assay comment: Pharmacokinetic profiles of PEGylated peptides in Fisher 344 rats
- Type: in vivo, rat
- Conditions used: 100 μg agonist/kg, plasma RIA, mean N = 3
Reported AUC0-last values for a set of substances

{"Substance": "C6-HSDAVFTEQY(OMe)TOrnLRAibQVAAAibOrnYLQSIOrnK(CO(CH2)2SPEG20K)OrnGGPSSGAPPPC(PEG20K)-NH2 (HSDAVFTEQYTXLRXQVAAXXYLQSIXXXGGPSSGAPPPC; C6 acyl, two PEG20K, C-terminal amide; Synthetic sequence PEGylated VPAC2 receptor agonist) [Agonist P499]", "AUC0-last, ng·h/mL": 6650}
{"Substance": "C6-HSDAVFTEQY(OMe)TOrnLRAibQLAAbuAibOrnYLQSIOrnC(PEG40K)OrnGGPSSGAPPPS-NH2 (HSDAVFTEQYTXLRXQLAXXXYLQSIXCXGGPSSGAPPPS; C6 acyl, PEG40K on Cys, C-terminal amide; Synthetic sequence PEGylated VPAC2 receptor agonist) [Agonist P539]", "AUC0-last, ng·h/mL": 4013}
